// data source = patent US12545659B2

Assay target: IRAK4 (Homo sapiens, UniProt Q9NWZ3)
Construct: endogenous in cells; host or cells: OCI-LY10
Sequence (Q9NWZ3 whole entry): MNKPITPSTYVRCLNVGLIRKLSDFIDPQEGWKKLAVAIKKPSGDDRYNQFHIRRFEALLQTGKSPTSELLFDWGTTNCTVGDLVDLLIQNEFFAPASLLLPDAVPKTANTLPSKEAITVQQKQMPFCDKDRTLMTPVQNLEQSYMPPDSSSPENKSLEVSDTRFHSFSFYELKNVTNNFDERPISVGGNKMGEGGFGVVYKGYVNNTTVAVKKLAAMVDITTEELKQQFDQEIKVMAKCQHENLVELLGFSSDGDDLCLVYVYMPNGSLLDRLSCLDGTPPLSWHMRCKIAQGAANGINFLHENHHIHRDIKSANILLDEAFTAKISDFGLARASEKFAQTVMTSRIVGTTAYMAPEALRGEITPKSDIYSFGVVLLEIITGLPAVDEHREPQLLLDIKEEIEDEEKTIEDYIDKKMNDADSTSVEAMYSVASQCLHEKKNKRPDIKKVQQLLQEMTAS
Assay procedure: IRAK4 MSD Degradation in OCI-LY10
Assay type: cell-based
Condition details: OCI-LY10 cells, 4 hrs incubation, read-out: IRAK4 degradation in OCI-LY10 at 4 hrs: DC50
Property: DC50; scope: individual compounds

Illustrative cases are given below, each with its answer.
Cn1c(=O)n(C2CCC(=O)NC2=O)c2cccc(C[C@H]3CC[C@H](N(C)C[C@H]4CC[C@H](n5cc6cc(NC(=O)c7cccc(C(F)(F)F)n7)c(C(C)(C)O)cc6n5)CC4)CC3)c21 (some centres unmarked) [I-62] | < 50 nM
Cn1c(=O)n(C2CCC(=O)NC2=O)c2cccc(CCC3CC4(CCN(C[C@H]5CC[C@H](n6cc7cc(NC(=O)c8cccc(C(F)(F)F)n8)c(C(C)(C)O)cc7n6)CC5)CC4)C3)c21 (some centres unmarked) [I-53] | < 50 nM
COc1cc2nn([C@H]3CC[C@H](CN4CCC(c5ccc6c(c5)n(C)c(=O)n6C5CCC(=O)NC5=O)CC4)CC3)cc2cc1NC(=O)c1cccc(C(C)(C)F)n1 (some centres unmarked) [I-100] | < 50 nM
COc1cc2nn([C@H]3CC[C@H](CN4CCC(c5cccc6c5n(C)c(=O)n6C5CCC(=O)NC5=O)CC4)CC3)cc2cc1NC(=O)c1cccc(C(C)(C)O)n1 (some centres unmarked) [I-258] | < 50 nM

Moving on to another compound below.
I would be grateful if you could share the reported DC50 for Cn1c(=O)n(C2CCC(=O)NC2=O)c2cccc(C3CN(C[C@H]4CC[C@H](n5cc6cc(NC(=O)c7cccc(C(C)(C)F)n7)c(C(F)F)cc6n5)CC4)C3)c21 (some centres unmarked) [I-113] .
50 to 100 nM
